// data source = patent US20240300927A1

- system_tested: c-Cbl (Homo sapiens (Human))
- Sequence (P22681 47-435): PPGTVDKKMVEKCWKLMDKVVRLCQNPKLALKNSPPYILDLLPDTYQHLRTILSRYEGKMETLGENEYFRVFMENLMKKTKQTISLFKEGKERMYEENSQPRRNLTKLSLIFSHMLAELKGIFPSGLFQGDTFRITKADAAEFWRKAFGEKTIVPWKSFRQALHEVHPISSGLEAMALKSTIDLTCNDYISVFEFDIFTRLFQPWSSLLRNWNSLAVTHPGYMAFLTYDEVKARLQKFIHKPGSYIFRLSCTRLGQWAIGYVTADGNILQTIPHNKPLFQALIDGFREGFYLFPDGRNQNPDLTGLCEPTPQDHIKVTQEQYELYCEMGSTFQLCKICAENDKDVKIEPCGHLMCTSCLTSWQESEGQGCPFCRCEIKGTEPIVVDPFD
pIC50: −log10 of the molar value.
Rule: condition met for pIC50 not less than 6, condition not met for anything less.

Illustrative cases are given below, each with its answer.
Cn1cnnc1CC1(c2cccc(NC(=O)c3cccc(C(F)(F)F)n3)c2)CC(F)(F)C1    condition met
Cn1cnnc1C(F)C1(c2cccc(NC(=O)c3nc(C(F)(F)F)c[nH]3)c2)COC1 (stereo not shown)    condition not met
C[C@H](Cc1nncn1C)c1cccc(NC(=O)c2nc(C(F)(F)F)cn2C)c1    condition not met
CC(C)[C@H]1CN(C)CCN1Cc1cc(C(=O)Nc2cccc(C3(Cc4nncn4C)COC3)c2)nc(C2CC2)c1    condition met

Q: Check the entry `Cn1cnnc1CC1(c2cccc(NC(=O)c3cc(CC(N)=O)cc(C(F)(F)F)n3)c2)COC1` : does pIC50 equal or exceed 6?
Ans: condition met

###

- assay_procedure: In vitro plasma protein binding, mouse
- Assay type: in vitro ADME
- condition_details: pooled mouse plasma, read-out: PPB % (H/R/M) (converted)
measured_property: fraction unbound at 4 h
Form rule: numeric answer, no unit written next to it.

Input CC(C)[C@H]1CN(C)CCN1Cc1cc(C(=O)Nc2cccc(C3(Cc4nncn4C)CC(F)(F)C3)c2)nc(C2CC2)c1 [Compound 224] . Output fraction unbound at 4 h: 0.06

###

- system_tested: UniProt:Q13191
- assay_procedure: Cbl-b LCK Ub TR-FRET assay (Cbl-b Lck HTRF)
- Format: biochemical
- condition_details: Cbl-b and C-Cbl selectivity, Lck HTRF
measured_property: (fold-selectivity)

Cn1cnnc1[C@H](F)[C@](C)(F)c1cccc(NC(=O)c2cc(CN3CCC4(CC4)C3)cc(C3CC3)n2)c1    (1.8x)
Cn1cnnc1[C@H](F)C1(c2cccc(NC(=O)c3cc(CN4CC(C)(F)C4)cc(C4CC4)n3)c2)COC1    (1.8x)
Cn1cnnc1[C@H](F)C1(c2cccc(NC(=O)c3cc(CN4CCC5(CC5)C4)nc(C4CC4)n3)c2)COC1    (1.2x)
Cn1cnnc1[C@H](F)C1(c2cccc(NC(=O)c3cc(CN)cc(C(F)(F)F)n3)c2)COC1.O=CO    (1.2x)

###

- system_tested: Cbl-b (Homo sapiens (Human))
- assay_procedure: Cbl-b LCK Ub TR-FRET assay (Cbl-b Lck HTRF)
- Format: biochemical
- condition_details: Cbl-b and C-Cbl selectivity, Lck HTRF
measured_property: (fold-selectivity)

C[C@H](c1cc(C(=O)Nc2cccc(C3(Cc4nncn4C)COC3)c2)nc(C(F)(F)F)c1)N1CC(F)C1    (1.7x)
Cn1cnnc1[C@@H](F)[C@](C)(F)c1cccc(NC(=O)c2cc(CN3CCC4(CC4)C3)cc(C3CC3)n2)c1    (1.7x)

###

- assay_procedure: Mouse PK
- Type: in vivo
- condition_details: plasma, intravenous, read-out: Mouse PK CLp
measured_property: clearance (mL/min/kg)
Numbers only here, please. The scale is mL/min/kg.

Input `CC(C)[C@H]1CN(C)CCN1Cc1cc(C(=O)Nc2cccc(C3(Cc4nncn4C)CC(F)(F)C3)c2)nc(C2CC2)c1` . Output clearance: 41

###

- system_tested: Cbl-b (Homo sapiens (Human), UniProt Q13191)
- Sequence (Q13191 40-426): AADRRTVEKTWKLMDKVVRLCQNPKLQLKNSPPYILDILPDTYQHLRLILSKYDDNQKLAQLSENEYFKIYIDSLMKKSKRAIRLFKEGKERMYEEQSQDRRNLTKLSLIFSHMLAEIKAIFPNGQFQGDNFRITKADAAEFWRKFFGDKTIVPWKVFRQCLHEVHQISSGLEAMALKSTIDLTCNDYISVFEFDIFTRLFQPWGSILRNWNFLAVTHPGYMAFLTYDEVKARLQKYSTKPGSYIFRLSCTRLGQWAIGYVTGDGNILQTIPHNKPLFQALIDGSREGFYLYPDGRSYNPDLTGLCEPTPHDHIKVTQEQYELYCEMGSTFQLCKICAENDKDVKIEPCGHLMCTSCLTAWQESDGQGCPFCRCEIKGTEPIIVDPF
- assay_procedure: Cbl-b LCK Ub TR-FRET assay (Cbl-b Lck HTRF)
- Type: biochemical
- condition_details: read-out: Cbl-b Lck HTRF IC50
measured_property: IC50
Provide a numeric answer, followed by its unit.

Cn1cnnc1[C@H](F)[C@]1(c2cccc(NC(=O)c3cccc(C(F)(F)F)n3)c2)CCO1    20 µM

Measured IC50 (Cbl-b (Homo sapiens (Human), UniProt Q13191)), entry `Cn1cnnc1[C@H](F)C1(c2cccc(NC(=O)c3cc(CN4CC(C)(F)C4)cc(C(F)(F)F)n3)c2)COC1` : 0.13 µM

Measured IC50 (Cbl-b (Homo sapiens (Human), UniProt Q13191)), entry `Cn1cnnc1[C@@H](F)[C@]1(c2cccc(NC(=O)c3cccc(C(F)(F)F)n3)c2)CCO1` : 16 µM

Measured IC50 (Cbl-b (Homo sapiens (Human), UniProt Q13191)), entry `Cn1cnnc1[C@H](F)C1(c2cccc(NC(=O)c3cc(CN4CC(C)(CO)C4)cc(C4CC4)n3)c2)CC(F)(F)C1` : 0.034 µM
